assay: APR_HepG2_MitoMembPot_24hr: Apredica 24-hour HepG2 Assay for Mitochondrial Membrane Potential (AID 2282911); conditions: imaging, actives raise or lower the signal
Activity calls are given as the source filed them. Rule for the calls: active = hit-call score of the fitted dose curve at least 0.9, where 1 is the maximum; inactive = score below 0.9.
A correct response names exactly one class from true = active, false = inactive

Answered cases to consult:
C[C@]12CCC(=O)C=C1CC[C@@H]1[C@@H]2CC[C@]2(C)C(=O)CC[C@@H]12 | false
O=S(=O)(O)C(F)(F)C(F)(F)C(F)(F)C(F)(F)F | false
O=C(NC(=O)c1c(F)cccc1F)Nc1cc(Cl)c(OC(F)(F)C(F)F)c(Cl)c1 | false

Qu. What call does the record list for CCC(=O)O[C@H]1CC[C@H]2[C@@H]3CCC4=CC(=O)CC[C@]4(C)[C@H]3CC[C@]12C ?
Ans. false

Qu. Could you please tell me the result logged for COS(=O)(=O)OC in this assay?
Ans. false

Qu. Hi, do you know how ClC(Cl)=C(c1ccc(Cl)cc1)c1ccc(Cl)cc1 came out in this test?
Ans. true

Qu. Look up the recorded call for C=CC(N)=O in this test.
Ans. false

Qu. Could you kindly confirm the outcome this assay logged for C1CC2OC2CC1C1CO1 (stereo not drawn) ?
Ans. false

Qu. Tell me the assay call for CO/C=C(/C(=O)OC)c1ccccc1COc1cccc(C(F)(F)F)n1 please.
Ans. true

Qu. Each molecule tested received a call. Report the one for CCCCCCCCOC(=O)c1ccccc1C(=O)OCCCCCCCC .
Ans. false

Qu. For Clc1ccc(Cl)cc1 , what call appears in the results of this test?
Ans. false

Qu. Kindly provide the recorded test outcome for the following molecule: Cc1cc(O)ccc1Cl
Ans. false

Qu. What is the recorded call for this molecule in the test? CCC(C)(CC)c1cc(NC(=O)c2c(OC)cccc2OC)on1
Ans. false

Values were extracted from PubChem BioAssay (EPA / NIEHS).
